Target: hS1P4 (Homo sapiens)
Construct: receptor stably expressed in CHO-K1 cells
Sequence (O95977 whole entry): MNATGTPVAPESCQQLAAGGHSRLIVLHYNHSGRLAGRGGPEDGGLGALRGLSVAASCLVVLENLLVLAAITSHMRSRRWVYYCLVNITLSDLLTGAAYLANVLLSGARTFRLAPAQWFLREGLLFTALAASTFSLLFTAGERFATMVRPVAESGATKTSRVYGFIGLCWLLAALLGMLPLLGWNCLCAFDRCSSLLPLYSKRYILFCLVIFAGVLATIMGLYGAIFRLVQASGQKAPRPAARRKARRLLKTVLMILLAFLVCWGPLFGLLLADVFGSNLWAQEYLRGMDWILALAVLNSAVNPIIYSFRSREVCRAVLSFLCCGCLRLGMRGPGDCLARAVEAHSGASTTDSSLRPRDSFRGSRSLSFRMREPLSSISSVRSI
Assay: […]GTPgammaS binding, CHO-K1 membranes
Consider the following compounds; for each one, report its EC50.
Give the value in nM but do not write nM after it.

Exercise: Any idea what EC50 was measured for CCCCCCCCc1ccc(CCC(N)(CO)COP(=O)(O)O)cc1 (centres unmarked) [Fingolimod(P)] ?
Solution: 6.1

Exercise: // next record CCc1cc(/C(C)=N/OCc2ccc(C3CCCCC3)c(C(F)(F)F)c2)ccc1CN1CC(C(=O)O)C1 [Siponimod]
Solution: 510

###

Target: hS1P4 (ProLink-tagged, PathHunter) (Homo sapiens, UniProt O95977)
Construct: gene S1PR4; ProLink-tagged receptor, PathHunter HEK293 cells
Experiment: cell-based
Set-up: species or system PathHunter HEK293; PathHunter beta-arrestin recruitment, agonist concentration-response
Conditions: HEK293, read-out: S1P4 β-Arrestin Emax, % of S1P
Consider the following molecules; for each one, report its Emax.
Give the value in % but do not write % after it.

Exercise: Any idea what Emax was measured for `CC(C)Oc1ccc(-c2nc(-c3cccc4c3CCC4=O)no2)cc1C#N` ?
Solution: 89.1

Exercise: // next record `O=C(O)C[C@H]1CCc2c1[nH]c1ccc(OCc3ccc(C4CCCC4)c(C(F)(F)F)c3)cc21`
Solution: 53.9

Exercise: // next record CCCCCCCCc1ccc(CCC(N)(CO)COP(=O)(O)O)cc1 (stereo not shown)
Solution: 77.6

Exercise: // next record `CCc1cc(/C(C)=N/OCc2ccc(C3CCCCC3)c(C(F)(F)F)c2)ccc1CN1CC(C(=O)O)C1`
Solution: 92.6
